# assayComment: Apparent solubility determination in pH 6.8 phosphate buffer
# Type: physicochemical
# conditionSummary: aqueous buffer, thermodynamic from solid, apparent solubility, 37° C., shaken 3 h
# Method: Apparent solubility determination: an excessive amount of the pharmaceutical compositions was weighed and put into a container. Phosphate buffer solution with pH6.8 was added respectively. The volume of the phosphate buffer solution was about 2/3 of volume of the container. […] The resulting solution was filtered with a 0.45 μm filter membrane, then the filtrate was collected, further diluted with an appropriate amount of methanol, mixed by vortex and analyzed by HPLC. […]
measurementType: solubility at 3 h
Note: a bare number is incomplete; add the unit.

[Q] I would be grateful if you could share the reported solubility at 3 h for CC(=O)O[C@H]1C(=O)[C@@]2(C)[C@H]([C@H](OC(=O)c3ccccc3)[C@]3(O)C[C@H](OC(=O)[C@H](O)[C@@H](NC(=O)c4ccccc4)c4ccccc4)C(C)=C1C3(C)C)[C@]1(OC(C)=O)CO[C@@H]1C[C@@H]2O .
[A] 4 µg/mL
